B1: Gamma-crystallin S, residues 96 to 176; numbered along this chain, P22914 (parent)
chain: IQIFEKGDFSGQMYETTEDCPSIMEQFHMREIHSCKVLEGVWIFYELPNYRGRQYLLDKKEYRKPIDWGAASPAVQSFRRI

Variants of: B1
Test: abundance fitness (aPCA) (normalised: wild type 0, dead -1); higher = more abundant; growth selection in yeast, the domain comes from the species named
Conditions: Homo sapiens
abundance fitness vs -0.07: at or above is Condition met, below is Condition not met.

Some solved entries appear below for comparison.
# CHANGES, DISCRETE LABEL
data = [
    ("M29L", "Condition not met"),
    ("C20N", "Condition not met"),
    ("I32Q", "Condition not met"),
    ("R53L", "Condition met"),
]

Problem: Test whether the variant `F44H` records abundance fitness of -0.07 or higher.
Solution: Condition not met

Problem: Would you say `E46Q` shows abundance fitness at minimum -0.07?
Solution: Condition met

Problem: Answer whether abundance fitness of `S22E` is greater than or equal to -0.07.
Solution: Condition met

Data provenance: the Human Domainome abundance scans (Beltran et al. 2025)
